tested on: 786-0 renal; assay: NCI tumour cell line growth inhibition, 48 h
# TGI per entry

# COMPOUND, TEST SYSTEM, TGI
rows = [
    ("CC(CO)CCNc1ncnc2c1ncn2CCC(=O)O (stereo not given)", "786-0 renal", "> 100 µM"),
    ("O=C1C=CC2(NN=C(c3ccccc3)N2c2ccccc2)c2cccc(O)c21 (stereo not given)", "786-0 renal", "43 µM"),
    ("Cc1c(C)n(COCCO)c2ncnc(N)c12", "786-0 renal", "> 100 µM"),
    ("CN(C)CCNC(=O)C1COc2cc(-c3cc(=O)c4ccccc4o3)ccc2O1 (stereo not given)", "786-0 renal", "36.3 µM"),
    ("CCOC(=O)c1cc(C)n(CN(CCO)Cn2nc(C(=O)OCC)cc2C)n1", "786-0 renal", "49.7 µM"),
    ("O=C1c2ccccc2C(=O)c2nc3c(O)cccc3cc21", "786-0 renal", "> 100 µM"),
    ("O=C(O)C(CCc1ccccc1)N1C(=O)c2ccccc2C1=O (stereo not given)", "786-0 renal", "> 100 µM"),
    ("NC(=O)/C(=N\\NC(=O)c1cc2ccccc2cc1O)C1C(=O)N(c2ccccc2)N=C1N (stereo not given)", "786-0 renal", "> 100 µM"),
    ("O=c1cc(-c2ccccc2)[nH]c2ccc(N3CCCC3)cc12", "786-0 renal", "> 52.4 µM"),
    ("CCCCCCCCn1ccc2cc(NC(=O)Cn3cc(CN4CCN(CC)CC4)nn3)ccc21", "786-0 renal", "3.11 µM"),
    ("CCSC1=CC(Cc2ccc(OC)cc2)N(C(=O)OC)C1 (stereo not given)", "786-0 renal", "> 100 µM"),
    ("CN1CCC(CN2c3ccccc3Sc3ccccc32)C1 (stereo not given)", "786-0 renal", "27.9 µM"),
    ("CC1(C)OCC(C2OC(OC(=O)c3ccc(C(F)(F)F)cc3)C3OC(C)(C)OC23)O1 (stereo not given)", "786-0 renal", "> 77.5 µM"),
    ("CC(=O)OC1COC(n2nc(N)nc2C)C(OC(C)=O)C1OC(C)=O (stereo not given)", "786-0 renal", "> 100 µM"),
    ("C=C(C)[C@@H]1CC[C@]2(C(N)=O)CC[C@]3(C)[C@H](CC[C@@H]4[C@@]5(C)C/C(=C/c6cccnc6)C(=O)C(C)(C)[C@@H]5CC[C@]43C)[C@@H]12", "786-0 renal", "> 100 µM"),
    ("CC[C@@]1(C[C@H]2C[C@@]3(C(=O)OC)c4[nH]c5ccccc5c4CCN3C2=S)COC2(CCCCC2)O1", "786-0 renal", "> 100 µM"),
    ("CCCCCCCCCCCCCCCC(=O)Nc1ccn(C2CC(OP(=O)(O)OCC3OC(n4cc(F)c(=O)[nH]c4=O)CC3OC(C)=O)C(CO)O2)c(=O)n1 (stereo not given)", "786-0 renal", "> 100 µM"),
    ("COC(=O)C1(CCC(=O)N(C)c2ccccc2)NNC2C(=O)N(c3ccccc3)C(=O)C21 (stereo not given)", "786-0 renal", "> 10 µM"),
    ("N#CC(NCCc1ccccc1)c1ccc(C(C#N)NCCc2ccccc2)cc1 (stereo not given)", "786-0 renal", "> 100 µM"),
    ("O=C(O)C(CO)N=Cc1nc(-c2ccccc2)oc1O (stereo not given)", "786-0 renal", "> 100 µM"),
]

Origin of values: PubChem BioAssay (NCI)
